assay: MTT cell viability assay; type: cell-based, human; details: human, K-562 cells (blast phase chronic myeloid leukemia), K-562, Blast phase CML (bcr-abl+), ± SD, read-out: In vitro cytotoxicity (IC50)
Structures can show the parent of a compound that is named as a salt.
assay_endpoint: IC50 at 72 h (µM)
Hi! Could you send only the number? It should be in µM, unit omitted.

Query block: Bench note: what IC50 at 72 h did CCN(CCCCOC(=O)c1ccc(OC)c(OC)c1)C(C)Cc1ccc(OC)cc1 (centres unmarked) [Mebeverine hydrochloride, mebeverine hydrochloride, reference compound] show?
Result block: 85.4

Query block: Bench note: what IC50 at 72 h did CC(C)C(Cc1ccccc1)NC(=O)c1ccccc1Cl (centres unmarked) show?
Result block: 367

Query block: Bench note: what IC50 at 72 h did CC(C)C(Cc1ccccc1)NC(=O)Cc1ccccc1 (centres unmarked) show?
Result block: 244

Query block: Bench note: what IC50 at 72 h did CC(=O)NC(Cc1ccccc1)C(C)C (centres unmarked) [Compound 4a, N-(3-methyl-1-phenylbutan-2-yl)acetamide] show?
Result block: 276

Query block: Bench note: what IC50 at 72 h did CC(C)C(Cc1ccccc1)NC(=O)c1ccccc1 (centres unmarked) [Compound 4b, N-(3-methyl-1-phenylbutan-2-yl)benzamide] show?
Result block: 329

###

system: 5-HT3 receptor; assay: Immunohistochemical analysis of 5-HT3 expression in gastric SM strips; set-up: species or system Wistar rats; key: −: absent; +: low; ++: moderate; +++: strong; conditions: SM preparations incubated with the compound
assay_endpoint: 5-HT3 expression, Response to Compound

1) CC(C)C(N)Cc1ccccc1 (centres unmarked) [Compound 3, 3-Methyl-1-phenylbutan-2-amine]
+++
2) CC(C)C(Cc1ccccc1)NC(=O)c1ccccc1Cl (centres unmarked) [Compound 4c]
−
3) CC(C)C(Cc1ccccc1)NC(=O)Cc1ccccc1 (centres unmarked) [Compound 4d]
+
4) CC(=O)NC(Cc1ccccc1)C(C)C (centres unmarked) [Compound 4a, N-(3-methyl-1-phenylbutan-2-yl)acetamide]
−

// next entry
Query block: Bench note: what 5-HT3 expression, Response to Compound did CC(C)C(Cc1ccccc1)NC(=O)c1ccccc1 (centres unmarked) [Compound 4b, N-(3-methyl-1-phenylbutan-2-yl)benzamide] show?
Result block: −

###

assay: MTT cell viability assay; format: cell-based, human; conditions: human, LAMA-84, CML in blast crisis (bcr-abl+), ± SD, read-out: In vitro cytotoxicity (IC50)
Where a name gives a salt, the structure may show the parent alone.
assay_endpoint: IC50 at 72 h (µM)
Hi! Could you send only the number? It should be in µM, unit omitted.

Query block: Bench note: what IC50 at 72 h did CC(C)C(N)Cc1ccccc1 (stereo not drawn) show?
Result block: 239

Query block: Bench note: what IC50 at 72 h did CC(C)C(Cc1ccccc1)NC(=O)Cc1ccccc1 (stereo not drawn) show?
Result block: 328

Query block: Bench note: what IC50 at 72 h did CCN(CCCCOC(=O)c1ccc(OC)c(OC)c1)C(C)Cc1ccc(OC)cc1 (stereo not drawn) [Mebeverine hydrochloride, mebeverine hydrochloride, reference compound] show?
Result block: 72

Query block: Bench note: what IC50 at 72 h did CC(C)C(Cc1ccccc1)NC(=O)c1ccccc1 (stereo not drawn) [Compound 4b, N-(3-methyl-1-phenylbutan-2-yl)benzamide] show?
Result block: 265

Query block: Bench note: what IC50 at 72 h did CC(C)C(Cc1ccccc1)NC(=O)c1ccccc1Cl (stereo not drawn) show?
Result block: 266

Query block: Bench note: what IC50 at 72 h did CC(=O)NC(Cc1ccccc1)C(C)C (stereo not drawn) [Compound 4a, N-(3-methyl-1-phenylbutan-2-yl)acetamide] show?
Result block: 360

###

system: SM preparations from the corpus gastric muscle; experiment: Ex vivo bioelectrical activity of smooth muscle preparations, single sucrose gap method; set-up: species or system Wistar rats; conditions: 5 × 10^−5 M; base activity taken as 100%; ↑ depolarization, ↓ hyperpolarization
assay_endpoint: Changes in the membrane potential (%)
Hi! Could you send only the number? It should be in %, unit omitted.

Query block: API: value(readout=Changes in the membrane potential, system=SM preparations from the corpus gastric muscle) for record CC(C)C(N)Cc1ccccc1 (stereo not shown)
Result block: 55

Query block: API: value(readout=Changes in the membrane potential, system=SM preparations from the corpus gastric muscle) for record CC(C)C(Cc1ccccc1)NC(=O)Cc1ccccc1 (stereo not shown)
Result block: 0

Query block: API: value(readout=Changes in the membrane potential, system=SM preparations from the corpus gastric muscle) for record CC(C)C(Cc1ccccc1)NC(=O)c1ccccc1 (stereo not shown) [Compound 4b, N-(3-methyl-1-phenylbutan-2-yl)benzamide]
Result block: 0

Query block: API: value(readout=Changes in the membrane potential, system=SM preparations from the corpus gastric muscle) for record CC(C)C(Cc1ccccc1)NC(=O)c1ccccc1Cl (stereo not shown)
Result block: 0

###

assay: MTT cell viability assay; type: cell-based; details: mouse, CCL-1, normal murine fibroblast cells, read-out: In vitro cytotoxicity (IC50)
assay_endpoint: IC50 at 72 h

Query block: Bench note: what IC50 at 72 h did CC(C)C(N)Cc1ccccc1 (stereo not shown) show?
Result block: > 300 µM
